targetOrSystem: T1, VGLVKSK(biotin) peptide (XGLVKSK(biotin), X = Val)
T1 construct: also called Nt-Val peptide
T1 peptide: VGLVKSK(Biotin)
runDescription: BLI, biotinylated peptide on streptavidin biosensor, 10 µmol/L protein
No end group written: not given here. *: point of attachment. Biotin = O=C1N[C@H]2[C@H](CS[C@H]2CCCCC(=O)*)N1
measureName: binding result

GID4 A252V-S283F double mutant variant (residues 116-300), purified with N-terminal His-tag (designed binder, also called A252V-S283F mutant; not shown: N-terminal six-histidine tag and TEV protease recognition site from the pET21(+) construct) GVATSLLYSGSKFRGHQKSKGNSYDVEVVLQHVDTGNSYLCGYLKIKGLTEEYPTLTTFFEGEIISKKHPFLTRKWDADEDVDRKHWGKFLAFYQYAKSFNSDDFDYEELKNGDYVFMRWKEQFLVPDHTIKDISGVSFAGFYYICFQKSAASIEGYYYHRSSEWYQFLNLTHVPEHSAPIYEFR :: binds
GID4 A252V-S253T-S283F triple mutant variant (residues 116-300), purified with N-terminal His-tag (designed binder, not shown: N-terminal six-histidine tag and TEV protease recognition site from the pET21(+) construct) GVATSLLYSGSKFRGHQKSKGNSYDVEVVLQHVDTGNSYLCGYLKIKGLTEEYPTLTTFFEGEIISKKHPFLTRKWDADEDVDRKHWGKFLAFYQYAKSFNSDDFDYEELKNGDYVFMRWKEQFLVPDHTIKDISGVTFAGFYYICFQKSAASIEGYYYHRSSEWYQFLNLTHVPEHSAPIYEFR :: binds
